Target: T1, GST-KIAA1719 PDZ domain 6 (Homo sapiens (Human)), Q9C0E4
T1 chain: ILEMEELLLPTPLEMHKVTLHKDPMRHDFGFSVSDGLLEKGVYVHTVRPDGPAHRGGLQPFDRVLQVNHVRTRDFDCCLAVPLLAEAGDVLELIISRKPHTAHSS
Experiment: G assay titration, PDZ 5 ug/ml
MEASURE: pKd
Reminder that pKd means the negative base-10 logarithm of the concentration expressed in mol/L.

Enquiry: Give pKd for the following binder: HHLVAQRDIRQFQLQHWLAI (modifications not checked) [noradrenaline transporter]
Return: 6.10
